For each entry below, report its growth value.
test system: TK-10 renal; assay: NCI-60 one-dose screen, 48 h (100 = growth as untreated, 0 = no growth, -100 = all killed); settings: 10 µM unless noted
This is part of a sample that, as a whole, favours compounds with a hit. Of some 83,000 tested, about 20% had one in any assay.
Form entry: value (%) — number only.

Per the record, `COc1ccc(C2=Nn3c(nnc3-c3cc(Cl)cc(Cl)c3Cl)SC2)cc1` has growth of 57.5

Per the record, `COc1ccc(CN2c3ccccc3Sc3ccccc32)c(F)c1` has growth of 51.1

Per the record, `O=[N+]([O-])c1ccc(Cl)c(-c2cc(CCCCO)on2)c1` has growth of 119

Per the record, Cc1cccc2c3c(sc12)C(c1ccc(Cl)cc1)C(C#N)=C(N)O3 (stereo not given) has growth of 71.7

Per the record, `COc1cc(C(=O)c2cnc(-c3c[nH]c4cccc(C)c34)[nH]2)cc(OC)c1OC` has growth of 43.8

Per the record, Cc1cccc(OCC(O)CN2CCN(c3ccc(Cl)cc3)CC2)c1 (stereo not given) has growth of 106

Per the record, `CNC(=O)c1[nH]cc(-c2ccccc2)c1-c1cc(OC)c2c(c1OC)OCO2` has growth of 106

Per the record, CCOC(=O)C1=C(N)Oc2c(sc3c(C)cccc23)C1c1ccc(F)cc1 (stereo not given) has growth of 76

Per the record, `CCCCNc1nc(NN2C(=O)c3cccc4cccc(c34)C2=O)nc(-n2cnc3ccccc32)n1` has growth of 100

Per the record, O=C1c2ccccc2NC(n2sc3ccccc3c2=O)N1c1ccccc1 (stereo not given) has growth of 109
